Values compiled from patent US20130123108A1.

test: Solubility in supersaturated polymer solution, general procedure 3; format: physicochemical; settings: phosphate buffer pH 7.0 with hyperbranched polymer, pH 7, aqueous with cosolvent or surfactant or cyclodextrin, thermodynamic from solid, Solubility in the presence of Polymer 1, approx. 2 g polymer, 0.2 g piroxicam, 20 g phosphate buffer pH 7.0, UV spectroscopy
measured attribute: solubility (µg/mL)
Give the value, in units of µg/mL, as a plain number.

Exercise: Please report the recorded solubility for CN1C(C(=O)Nc2ccccn2)=C(O)c2ccccc2S1(=O)=O .
Solution: 9200

---

assay: Solubility from solid dispersion with hyperbranched polymer, general procedure 2; type: physicochemical; settings: water buffered to pH 6.8 with hyperbranched polymer, pH 6.8, aqueous with cosolvent or surfactant or cyclodextrin, thermodynamic from solid, Solubility in the presence of Polymer 4, 0.5 g polymer, 0.1 g compound, 100 ml water buffered to pH 6.8, stirred 24 h, HPLC/UV
measured attribute: solubility at 24 h (µg/mL)
The reply should contain only the number, in µg/mL.

Exercise: Form field: reported solubility at 24 h of NC(=O)N1c2ccccc2C=Cc2ccccc21 [Carbamazepine]
Solution: 336

---

assay: Solubility in supersaturated polymer solution, general procedure 3; assay type: physicochemical; settings: phosphate buffer pH 7.0 with hyperbranched polymer, pH 7, aqueous with cosolvent or surfactant or cyclodextrin, thermodynamic from solid, approx. 2 g polymer, 0.2 g piroxicam, 20 g phosphate buffer pH 7.0, UV spectroscopy; read-out: Solubility in the presence of Polymer 3
measured attribute: solubility (µg/mL)
Hi! Could you send only the number? It should be in µg/mL, unit omitted.

Exercise: Given the entry CN1C(C(=O)Nc2ccccn2)=C(O)c2ccccc2S1(=O)=O , report its measured solubility.
Solution: 5300

---

Assay: Solubility from solid dispersion with hyperbranched polymer, general procedure 2
Assay type: physicochemical
Details: pH 6.8, aqueous with cosolvent or surfactant or cyclodextrin, thermodynamic from solid, Solubility in the presence of Polymer 1
Protocol: 0.5 g of the chosen polymer and 0.1 g of a compound to be dissolved in water were dissolved in approximately 20 ml of N,N-dimethylformamide (DMF). The mixture was stirred and subsequently freed from DMF. A solid dispersion of the chosen copolymer with the chosen compound to be dissolved was obtained. […] After filtration, solutions were obtained and their contents of the compound to be dissolved were determined using HPLC and a UV detector. […]
measured attribute: solubility at 24 h (µg/mL)
Lab book: enter the figure in µg/mL, no units written.

Exercise: Bench note: what solubility at 24 h did N#Cc1nn(-c2c(Cl)cc(C(F)(F)F)cc2Cl)c(N)c1[S+]([O-])C(F)(F)F (stereo not shown) show?
Solution: 448

---

This section presents compounds with their documented solubility at 24 h values.
Test: Solubility from solid dispersion with hyperbranched polymer, general procedure 2
Assay type: physicochemical
Details: water buffered to pH 6.8 with hyperbranched polymer, pH 6.8, aqueous with cosolvent or surfactant or cyclodextrin, thermodynamic from solid, 0.5 g polymer, 0.1 g compound, 100 ml water buffered to pH 6.8, stirred 24 h, HPLC/UV; read-out: Solubility in the presence of Polymer 5
Description: 0.5 g of the chosen polymer and 0.1 g of a compound to be dissolved in water were dissolved in approximately 20 ml of N,N-dimethylformamide (DMF). The mixture was stirred and subsequently freed from DMF. A solid dispersion of the chosen copolymer with the chosen compound to be dissolved was obtained. […] After filtration, solutions were obtained and their contents of the compound to be dissolved were determined using HPLC and a UV detector. […]
State just the number; it will be interpreted in µg/mL.

NC(=O)N1c2ccccc2C=Cc2ccccc21 [Carbamazepine] ... 190

Then this compound:
Exercise: Sample CN1C(C(=O)Nc2ccccn2)=C(O)c2ccccc2S1(=O)=O — what was its solubility at 24 h?
Solution: 1110
